Assay info: Inhibitory concentration against Caspase-1
Assay readout: IC50

Data request: IC50 for CC(C)[C@H](OC(=O)Nc1ccccc1)C(=O)NC(CC(=O)O)C(=O)CF (stereo partly specified) ?
Data returned: 12 nM

###

Tested on: Caspase-7 (Homo sapiens)
Sequence (P55210 24-198 limits assumed): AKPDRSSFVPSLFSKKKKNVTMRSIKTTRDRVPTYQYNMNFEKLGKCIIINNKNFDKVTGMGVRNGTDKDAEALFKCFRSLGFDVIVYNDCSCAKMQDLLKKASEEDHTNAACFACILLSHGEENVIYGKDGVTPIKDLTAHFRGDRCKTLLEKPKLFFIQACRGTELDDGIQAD
Sequence (P55210 207-303 limits assumed): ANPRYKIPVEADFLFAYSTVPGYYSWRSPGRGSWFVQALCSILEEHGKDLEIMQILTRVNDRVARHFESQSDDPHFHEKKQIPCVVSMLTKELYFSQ
Assay readout: pIC50
The quantity pIC50 is defined as the negative base-10 logarithm of the molar concentration.

Data request: pIC50 for CC(C)[C@H](OC(=O)Nc1ccccc1)C(=O)NC(CC(=O)O)C(=O)CF (stereo partly specified) ?
Data returned: 7.96

###

Test system: HeLa
Assay info: Concentration tested for 50% of TNF- alpha induce HeLa cell protection was determined
Type: functional, cell-based
Test context: Homo sapiens
Assay readout: Concentration (nM)
Write down the numeric answer in nM and omit the unit.

Molecule	Concentration (nM)
C[C@H](OC(=O)Nc1ccccc1)C(=O)NC(CC(=O)O)C(=O)CF (stereo partly specified)	1400
CC(C)[C@H](OC(=O)Nc1ccccc1)C(=O)NC(CC(=O)O)C(=O)COC(=O)c1c(Cl)cccc1Cl (stereo partly specified)	1000
CC(C)[C@H](OC(=O)Nc1ccccc1)C(=O)NC(CC(=O)O)C(=O)CF (stereo partly specified)	200
CC(C)[C@H](NC(=O)Oc1ccccc1)C(=O)NC(CC(=O)O)C(=O)CF (stereo partly specified)	250
CC(C)[C@H](OC(=O)Nc1ccc(Cl)cc1Cl)C(=O)NC(CC(=O)O)C(=O)CF (stereo partly specified)	100

For the next question, use this molecule.
Data request: Notebook entry, HeLa assay: Concentration of CC(C)[C@H](OC(=O)Nc1ccccc1)C(=O)NC(CC(=O)O)C(=O)COc1cc(C(F)(F)F)nn1-c1ccccc1 (stereo partly specified) = ?
Data returned: 1100

###

Tested on: Caspase-8 (Homo sapiens, UniProt Q14790)
Sequence (Q14790 217-374 limits assumed): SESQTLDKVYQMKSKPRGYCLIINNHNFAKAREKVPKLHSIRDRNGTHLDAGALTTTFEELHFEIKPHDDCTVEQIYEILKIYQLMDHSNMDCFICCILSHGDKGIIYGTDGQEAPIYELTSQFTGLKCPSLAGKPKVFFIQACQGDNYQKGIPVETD
Sequence (Q14790 385-479 limits assumed): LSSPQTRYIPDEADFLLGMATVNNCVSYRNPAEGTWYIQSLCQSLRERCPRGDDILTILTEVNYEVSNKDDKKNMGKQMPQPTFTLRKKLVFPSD
Assay readout: IC50 (µM)
Write down the numeric answer in µM and omit the unit.

Data request: IC50 for CC(C)[C@H](OC(=O)Nc1ccccc1)C(=O)NC(CC(=O)O)C(=O)CF (stereo partly specified) ?
Data returned: 0.017

###

Protein target, amino acids: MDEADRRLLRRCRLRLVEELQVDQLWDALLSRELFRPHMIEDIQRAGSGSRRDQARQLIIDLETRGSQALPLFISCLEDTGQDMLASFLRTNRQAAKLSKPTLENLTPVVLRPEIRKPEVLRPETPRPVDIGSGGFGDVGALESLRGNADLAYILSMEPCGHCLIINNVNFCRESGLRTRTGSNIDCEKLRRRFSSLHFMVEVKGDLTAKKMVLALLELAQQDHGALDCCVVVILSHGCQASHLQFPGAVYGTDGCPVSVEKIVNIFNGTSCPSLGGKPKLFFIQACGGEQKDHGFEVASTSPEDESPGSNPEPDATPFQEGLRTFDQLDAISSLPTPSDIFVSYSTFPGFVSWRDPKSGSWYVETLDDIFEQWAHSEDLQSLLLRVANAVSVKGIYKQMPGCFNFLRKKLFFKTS
Assay readout: IC50

Data request: IC50 for CC(C)[C@H](OC(=O)Nc1ccccc1)C(=O)NC(CC(=O)O)C(=O)CF (stereo partly specified) ?
Data returned: 30 nM
